molecules and their reported IC50 at 4 h
Assay info: Cytotoxicity against human MRC5 cells assessed as inhibition of cell proliferation incubated for 4 hrs by MTT assay
Assay type: toxicity, cell-based
Where a SMILES comes first, the peptide text is derived from it. [ ]: non-standard residue; d: D form. ξ: configuration not given here. ξDip = NC(C(=O)O)C(c1ccccc1)c1ccccc1; ξDab = NCCC(N)C(=O)O

Solved cases below.
| Molecule | IC50 at 4 h |
| --- | --- |
| NCCCC[C@H](NC(=O)[C@H](Cc1c[nH]c2ccccc12)NC(=O)[C@H](Cc1c[nH]c2ccccc12)NC(=O)[C@H](CCCCN)NC(=O)[C@H](CCCCN)NC(=O)C(NC(=O)[C@H](Cc1c[nH]c2ccccc12)NC(=O)[C@H](CCCCN)NC(=O)[C@@H](N)CCCCN)C(c1ccccc1)c1ccccc1)C(N)=O (some centres undefined) (H-KKW[ξDip]KKWWK-NH2) | 287 µM |
| NCCCC[C@H](NC(=O)C(NC(=O)[C@H](Cc1c[nH]c2ccccc12)NC(=O)[C@H](CCCCN)NC(=O)[C@H](CCCCN)NC(=O)[C@@H](N)Cc1c[nH]c2ccccc12)C(c1ccccc1)c1ccccc1)C(N)=O (some centres undefined) (H-WKKW[ξDip]K-NH2) | 460 µM |
| NCCC(N)C(=O)NC(CCN)C(=O)N[C@@H](Cc1c[nH]c2ccccc12)C(=O)NC(C(=O)NC(CCN)C(=O)NC(CCN)C(=O)N[C@@H](Cc1c[nH]c2ccccc12)C(=O)N[C@@H](Cc1c[nH]c2ccccc12)C(=O)NC(CCN)C(N)=O)C(c1ccccc1)c1ccccc1 (some centres undefined) (H-[ξDab][ξDab]W[ξDip][ξDab][ξDab]WW[ξDab]-NH2) | 97.7 µM |

Now, please, on to the next molecule.
Quote IC50 at 4 h reported for NCCCC[C@H](NC(=O)[C@H](Cc1c[nH]c2ccccc12)NC(=O)[C@H](Cc1c[nH]c2ccccc12)NC(=O)[C@H](CCCCN)NC(=O)[C@H](CCCCN)NC(=O)[C@H](Cc1c[nH]c2ccccc12)NC(=O)[C@H](Cc1c[nH]c2ccccc12)NC(=O)[C@H](CCCCN)NC(=O)[C@@H](N)CCCCN)C(N)=O (H-KKWWKKWWK-NH2) please. > 357 µM

----------
System: HL60/ADR
Assay info: Cytotoxicity against human HL60/ADR cells assessed as inhibition of cell proliferation incubated for 4 hrs by MTS assay
Format: functional, cell-based
Where a SMILES comes first, the peptide text is derived from it. [ ]: non-standard residue; d: D form. ξ: configuration not given here. Bip = N[C@@H](Cc1ccc(-c2ccccc2)cc1)C(=O)O; ξDip = NC(C(=O)O)C(c1ccccc1)c1ccccc1
Under this convention, yes (1) denotes IC50 strictly below 7 µM and no (0) denotes IC50 at or above 7 µM.

# count of solved cases: 3
| Compound | Measurement target | Label value |
| --- | --- | --- |
| N=C(N)NCCC[C@H](NC(=O)[C@H](Cc1c[nH]c2ccccc12)NC(=O)[C@H](Cc1c[nH]c2ccccc12)NC(=O)[C@H](CCCNC(=N)N)NC(=O)[C@H](CCCNC(=N)N)NC(=O)C(NC(=O)[C@H](Cc1c[nH]c2ccccc12)NC(=O)[C@H](CCCNC(=N)N)NC(=O)[C@@H](N)CCCNC(=N)N)C(c1ccccc1)c1ccccc1)C(N)=O (stereo not given in full) (H-RRW[ξDip]RRWWR-NH2) | HL60/ADR | yes (1) |
| NCCCC[C@H](NC(=O)C(NC(=O)[C@H](Cc1c[nH]c2ccccc12)NC(=O)[C@H](CCCCN)NC(=O)[C@H](CCCCN)NC(=O)[C@H](Cc1c[nH]c2ccccc12)NC(=O)[C@H](Cc1c[nH]c2ccccc12)NC(=O)[C@H](CCCCN)NC(=O)[C@@H](N)CCCCN)C(c1ccccc1)c1ccccc1)C(N)=O (stereo not given in full) (H-KKWWKKW[ξDip]K-NH2) | HL60/ADR | yes (1) |
| NCCCC[C@H](NC(=O)[C@H](Cc1c[nH]c2ccccc12)NC(=O)[C@H](CCCCN)NC(=O)[C@H](CCCCN)NC(=O)C(NC(=O)[C@H](Cc1c[nH]c2ccccc12)NC(=O)[C@H](CCCCN)NC(=O)[C@H](CCCCN)NC(=O)[C@@H](N)Cc1c[nH]c2ccccc12)C(c1ccccc1)c1ccccc1)C(N)=O (stereo not given in full) (H-WKKW[ξDip]KKWK-NH2) | HL60/ADR | no (0) |

Is the reported IC50 for NCCCC[C@H](NC(=O)[C@H](Cc1c[nH]c2ccccc12)NC(=O)[C@H](Cc1c[nH]c2ccccc12)NC(=O)[C@H](CCCCN)NC(=O)[C@H](CCCCN)NC(=O)[C@H](Cc1c[nH]c2ccccc12)NC(=O)[C@H](Cc1ccc(-c2ccccc2)cc1)NC(=O)[C@H](CCCCN)NC(=O)[C@@H](N)CCCCN)C(N)=O (H-KK[Bip]WKKWWK-NH2) strictly below 7 µM? yes (1)

----------
Tested on: A20
Assay info: Cytotoxicity against mouse A20 lymphoma cells assessed as inhibition of cell proliferation incubated for 4 hrs by MTT assay
Format: functional, cell-based
Protocol conditions: A20, 4 h
Where a SMILES comes first, the peptide text is derived from it. [ ]: non-standard residue; d: D form. ξ: configuration not given here. Dip = N[C@H](C(=O)O)C(c1ccccc1)c1ccccc1; ξDip = NC(C(=O)O)C(c1ccccc1)c1ccccc1; ξOrn = NCCCC(N)C(=O)O
molecules and their reported pIC50
Field pIC50 (float): negative decimal logarithm of the concentration in molar.

Below are worked cases with known answers.
| Molecule | pIC50 |
| --- | --- |
| NCCCC[C@H](NC(=O)[C@H](Cc1c[nH]c2ccccc12)NC(=O)[C@H](Cc1c[nH]c2ccccc12)NC(=O)[C@H](CCCCN)NC(=O)[C@H](CCCCN)NC(=O)[C@H](Cc1c[nH]c2ccccc12)NC(=O)C(NC(=O)[C@H](CCCCN)NC(=O)[C@@H](N)CCCCN)C(c1ccccc1)c1ccccc1)C(N)=O (stereo partly drawn) (H-KK[ξDip]WKKWWK-NH2) | 4.29 |
| NCCCC(N)C(=O)NC(CCCN)C(=O)N[C@@H](Cc1c[nH]c2ccccc12)C(=O)NC(C(=O)NC(CCCN)C(=O)NC(CCCN)C(=O)N[C@@H](Cc1c[nH]c2ccccc12)C(=O)N[C@@H](Cc1c[nH]c2ccccc12)C(=O)NC(CCCN)C(N)=O)C(c1ccccc1)c1ccccc1 (stereo partly drawn) (H-[ξOrn][ξOrn]W[ξDip][ξOrn][ξOrn]WW[ξOrn]-NH2) | 4.66 |

Continue with the next molecule.
Under A20, report pIC50 for NCCCC[C@H](NC(=O)[C@H](Cc1c[nH]c2ccccc12)NC(=O)[C@H](Cc1c[nH]c2ccccc12)NC(=O)[C@H](CCCCN)NC(=O)[C@H](CCCCN)NC(=O)[C@@H](NC(=O)[C@H](Cc1c[nH]c2ccccc12)NC(=O)[C@H](CCCCN)NC(=O)[C@@H](N)CCCCN)C(c1ccccc1)c1ccccc1)C(N)=O (H-KKW[Dip]KKWWK-NH2) 3.87

----------
# pIC50 listing for each entry below
System: DU-145
Assay info: Cytotoxicity against human DU-145 cells assessed as inhibition of cell proliferation incubated for 4 hrs by MTS assay
Format: functional, cell-based
Protocol conditions: DU-145, 4 h
Where a SMILES comes first, the peptide text is derived from it. [ ]: non-standard residue; d: D form. ξ: configuration not given here. Bip = N[C@@H](Cc1ccc(-c2ccccc2)cc1)C(=O)O; ξBip = NC(Cc1ccc(-c2ccccc2)cc1)C(=O)O; ξDip = NC(C(=O)O)C(c1ccccc1)c1ccccc1
// scale note: pIC50 = -log10(conc_M); give the bare number

| Compound | pIC50 |
| --- | --- |
| N=C(N)NCCC[C@H](NC(=O)[C@H](Cc1c[nH]c2ccccc12)NC(=O)[C@H](Cc1c[nH]c2ccccc12)NC(=O)[C@H](CCCNC(=N)N)NC(=O)[C@H](CCCNC(=N)N)NC(=O)C(NC(=O)[C@H](Cc1c[nH]c2ccccc12)NC(=O)[C@H](CCCNC(=N)N)NC(=O)[C@@H](N)CCCNC(=N)N)C(c1ccccc1)c1ccccc1)C(N)=O (stereo not given in full) (H-RRW[ξDip]RRWWR-NH2) | 5.17 |

Name the recorded pIC50 of the compound listed here: NCCCC[C@H](NC(=O)[C@H](Cc1c[nH]c2ccccc12)NC(=O)[C@H](Cc1c[nH]c2ccccc12)NC(=O)[C@H](CCCCN)NC(=O)[C@H](CCCCN)NC(=O)[C@H](Cc1c[nH]c2ccccc12)NC(=O)C(Cc1ccc(-c2ccccc2)cc1)NC(=O)[C@H](CCCCN)NC(=O)[C@@H](N)CCCCN)C(N)=O (stereo not given in full) (H-KK[ξBip]WKKWWK-NH2) 5.06

Identify the reported pIC50 for the following entry. NCCCC[C@H](NC(=O)[C@H](Cc1c[nH]c2ccccc12)NC(=O)[C@H](Cc1c[nH]c2ccccc12)NC(=O)[C@H](CCCCN)NC(=O)[C@H](CCCCN)NC(=O)[C@H](Cc1c[nH]c2ccccc12)NC(=O)[C@H](Cc1ccc(-c2ccccc2)cc1)NC(=O)[C@H](CCCCN)NC(=O)[C@@H](N)CCCCN)C(N)=O (H-KK[Bip]WKKWWK-NH2) 5.09

Read off the recorded pIC50 for NCCCC[C@H](NC(=O)[C@H](Cc1c[nH]c2ccccc12)NC(=O)[C@H](CCCCN)NC(=O)[C@H](CCCCN)NC(=O)C(NC(=O)[C@H](Cc1c[nH]c2ccccc12)NC(=O)[C@H](CCCCN)NC(=O)[C@H](CCCCN)NC(=O)[C@@H](N)Cc1c[nH]c2ccccc12)C(c1ccccc1)c1ccccc1)C(N)=O (stereo not given in full) (H-WKKW[ξDip]KKWK-NH2) 4.91

Fill in reported pIC50 for this entry: NCCCC[C@H](NC(=O)C(NC(=O)[C@H](Cc1c[nH]c2ccccc12)NC(=O)[C@H](CCCCN)NC(=O)[C@H](CCCCN)NC(=O)[C@H](Cc1c[nH]c2ccccc12)NC(=O)[C@H](Cc1c[nH]c2ccccc12)NC(=O)[C@H](CCCCN)NC(=O)[C@@H](N)CCCCN)C(c1ccccc1)c1ccccc1)C(N)=O (stereo not given in full) (H-KKWWKKW[ξDip]K-NH2) 5.41
